- target_of_assay: UniProtKB P00189
- Sequence (P00189 40-520): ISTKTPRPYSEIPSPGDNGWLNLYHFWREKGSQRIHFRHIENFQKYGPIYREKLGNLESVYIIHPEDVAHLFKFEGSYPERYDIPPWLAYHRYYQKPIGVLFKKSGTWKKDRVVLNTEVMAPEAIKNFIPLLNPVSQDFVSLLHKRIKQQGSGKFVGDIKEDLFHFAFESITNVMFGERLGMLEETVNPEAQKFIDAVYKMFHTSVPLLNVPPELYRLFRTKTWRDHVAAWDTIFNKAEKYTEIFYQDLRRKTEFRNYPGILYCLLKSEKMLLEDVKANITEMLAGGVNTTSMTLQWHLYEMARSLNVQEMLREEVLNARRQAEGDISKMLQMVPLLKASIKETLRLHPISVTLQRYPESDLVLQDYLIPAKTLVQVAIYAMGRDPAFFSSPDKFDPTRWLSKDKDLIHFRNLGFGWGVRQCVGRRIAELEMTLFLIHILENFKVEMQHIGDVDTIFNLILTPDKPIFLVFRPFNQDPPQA
readout_label: IC50 (µM)
Numbers only here, please. The scale is µM.

Record CCC1(c2ccc(N)cc2)CCC(=O)NC1=O (stereo not shown) [aminoglutethimide, 3-ethyl-3-(4-aminophenyl)glutarimide, reference compound] ; system UniProtKB P00189; IC50 = 30

The values you see were collected from patent US5071857A.
